tested on: U-937; experiment: Cytotoxicity against human U937 cells after 24 hrs by MTT assay; conditions: u-937, 24 h

SMILES REPRESENTATION: CCOC(=O)/C(O)=C/C(=O)c1cn(Cc2ccc(F)cc2)c2ccc(F)cc2c1=O
CC50: > 200 µM

SMILES REPRESENTATION: O=C(O)/C(O)=C/C(=O)c1cn(Cc2ccc(F)cc2)c2cc(F)ccc2c1=O
CC50: > 200 µM

SMILES REPRESENTATION: O=C(O)/C(O)=C/C(=O)c1cn(Cc2ccc(F)cc2)c2c(Cl)cccc2c1=O
CC50: > 200 µM

SMILES REPRESENTATION: CCOC(=O)/C(O)=C/C(=O)c1cn(Cc2ccc(F)cc2)c2c(F)cccc2c1=O
CC50: > 200 µM

SMILES REPRESENTATION: CCOC(=O)/C(O)=C/C(=O)c1cn(Cc2ccc(F)cc2)c2ccccc2c1=O
CC50: 99 µM

SMILES REPRESENTATION: O=C(O)/C(O)=C/C(=O)c1ccc2c(c1)c(=O)c(C(=O)/C=C(\O)C(=O)O)cn2Cc1ccc(F)cc1
CC50: > 200 µM

SMILES REPRESENTATION: CCOC(=O)/C(O)=C/C(=O)c1cn(Cc2ccc(F)cc2)c2cc(Cl)c(Cl)cc2c1=O
CC50: 72 µM

SMILES REPRESENTATION: O=C(O)/C(O)=C/C(=O)c1cn(Cc2ccc(F)cc2)c2ccc(Cl)cc2c1=O
CC50: > 200 µM

SMILES REPRESENTATION: O=C(O)/C(O)=C/C(=O)c1cn(Cc2ccc(F)cc2)c2cc(Cl)c(Cl)cc2c1=O
CC50: 156 µM
